Tested on: MCF7
ASSAY_TEXT: NCI tumour cell line growth inhibition, 48 h
The source made the active and inactive calls. Rule as the data show it: active = GI50 up to about 1.1 µM and inactive = higher.
Labels: yes (active), no (inactive)

{"columns": ["COMPOUND", "MEASURED_TARGET", "CLASS_LABEL"],
 "data": [
  ["CC[C@H](C)[C@@H]([C@@H](CC(=O)N1CCC[C@H]1[C@H](OC)[C@@H](C)C(=O)NCCc1ccccc1)OC)N(C)C(=O)C(NC(=O)[C@H](C(C)C)N(C)C)C(C)C (some centres undefined)", "MCF7", "yes"],
  ["COc1ccc2c3c([nH]c2c1)CCN(CCCC(=O)c1ccc(F)cc1)C3", "MCF7", "no"],
  ["O=C1/C(=C/c2ccc(Cl)cc2)N=C(c2ccccc2)N1/N=C/c1ccccc1O", "MCF7", "no"],
  ["COC(=O)CCc1ccc2c(c1)[C@H](C(=O)OC)[C@@H](c1ccc(O)cc1)O2", "MCF7", "no"]
]}

----------
Recorded GI50 for the following compounds
Tested on: HCC 2998
ASSAY_TEXT: NCI tumour cell line growth inhibition, 48 h
The source made the active and inactive calls. Cut-off read from the data, not from the text of the source: active = GI50 up to about 1.1 µM and inactive = higher.

{"columns": ["COMPOUND", "GI50"],
 "data": [
  ["CCCCCCCCCCCCCCCCc1c(O)nc(NC#N)nc1C(=O)OC", "> 25 µM (inactive)"],
  ["COc1ccc(NC2=CC(=O)C(=O)c3ccccc32)nn1", "6.68 µM (inactive)"],
  ["CC1=NOC(=O)/C1=C/c1ccc2c(c1)OCO2", "28.9 µM (inactive)"],
  ["C/C(=N/CC(=O)O)c1ccccc1", "39.8 µM (inactive)"],
  ["C/C=C/OC1C(C2COC(C)(C)O2)OC2OC(C)(C)OC21 (stereo not drawn)", "> 100 µM (inactive)"],
  ["O=C(O)c1ccccc1C(=O)OCC1CCCN2CCCCC12 (stereo not drawn)", "> 100 µM (inactive)"],
  ["CCC1CN2CCc3c([nH]c4ccccc34)C2C[C@@H]1CC(=O)N(C)C (stereo partly drawn)", "> 100 µM (inactive)"],
  ["CCCCc1ccc(Nc2nc(Cl)c3[nH]cnc3n2)cc1", "25.5 µM (inactive)"],
  ["Cc1ccc(/N=N/c2c(C)nn(-c3ccccc3)c2C)c(Br)c1", "> 100 µM (inactive)"],
  ["CCOc1ccc2c(c1)[n+]([O-])c(S(=O)(=O)c1ccc(C)cc1)c(N)[n+]2[O-]", "> 100 µM (inactive)"],
  ["O=C1Nc2ccccc2/C1=N/Nc1ccc([N+](=O)[O-])cc1", "70.5 µM (inactive)"],
  ["COc1ccc(/C=C2\\N=C(N3CCCCC3)NC2=O)cc1", "> 100 µM (inactive)"],
  ["COc1ccccc1C(O)(c1ccccc1)C(O)(c1ccccc1)c1ccccc1OC (stereo not drawn)", "> 100 µM (inactive)"],
  ["CN(NC(=O)c1ccco1)C1=NCCN1", "> 100 µM (inactive)"],
  ["Cc1cn2c(=O)c3ccccc3nc2s1", "> 100 µM (inactive)"],
  ["CC1CC(C)C(O)C(C2CC(CC(=O)NC3CCCCC3)CC(=O)O2)C1 (stereo not drawn)", "> 100 µM (inactive)"],
  ["O=C(O)Cn1ccnc1[N+](=O)[O-]", "> 100 µM (inactive)"],
  ["N#CC1(C#N)C(C#N)(C#N)C12CCCCCC2", "19.6 µM (inactive)"],
  ["O=C(O)c1ccc(C(c2c(O)oc3ccccc3c2=O)c2c(O)oc3ccccc3c2=O)cc1", "29.3 µM (inactive)"],
  ["NC1=NN(c2ccccc2)C(=O)C1C(=O)C(=O)Nc1ccc(Cl)cc1 (stereo not drawn)", "> 100 µM (inactive)"],
  ["CCOC(=O)Cn1c(=O)c2nc(SC)sc2n(CC)c1=S", "> 100 µM (inactive)"],
  ["O=C1CSC(c2ccccc2O)N1c1ccc2c(c1)Oc1c(Cl)c3c(c(Cl)c1=N2)Oc1cc(N2C(=O)CSC2c2ccccc2O)ccc1N=3 (stereo not drawn)", "53.3 µM (inactive)"],
  ["NC(Cc1cccc([N+](=O)[O-])c1)C(=O)O (stereo not drawn)", "> 100 µM (inactive)"]
]}

----------
Tested on: HL-60
ASSAY_TEXT: NCI tumour cell line growth inhibition, 48 h
The source made the active and inactive calls. Rule as the data show it: active = GI50 up to about 1.1 µM and inactive = higher.
Labels: Yes = active, No = inactive

{"columns": ["COMPOUND", "CLASS_LABEL"],
 "data": [
  ["CCCCCCNC(=S)N/N=C(\\C)c1ccccn1", "Yes"],
  ["COC(=O)CCC(NC(=S)N/N=C(\\C)c1cnc2ccccc2n1)C(=O)OC (centres undefined)", "No"],
  ["CC(=O)OCCOCCN1CCN(C2=C(Cl)C(=O)c3c(O)ccc(O)c3C2=O)CC1", "Yes"],
  ["CC(C)C1=CC23CCC4C(C)(C(=O)O)CCCC4(C)C2CC1C1C(=O)N(CCCCCCN2C(=O)C4C5CC6C7(C)CCCC(C)(C(=O)O)C7CCC6(C=C5C(C)C)C4C2=O)C(=O)C13 (centres undefined)", "No"]
]}

----------
Recorded GI50 for the following molecules
Tested on: SN12C
ASSAY_TEXT: NCI tumour cell line growth inhibition, 48 h
Activity calls are given as the source filed them. Cut-off read from the data, not from the text of the source: active = GI50 up to about 1.1 µM and inactive = higher.
ENDPOINT_NAME: GI50

{"columns": ["MOLECULE", "MEASURED_VALUE"],
 "data": [
  ["COc1ccc2c([nH]c3cc(O)c(C)cc32)c1CC=C(C)C", "5.04 µM (inactive)"],
  ["O=C(O)CSc1ccc2nc3ccccc3c(O)c2c1", "> 100 µM (inactive)"],
  ["O=C(c1ccc(Cl)cc1)N(C(=S)OCc1ccccn1)c1ccccc1", "51.6 µM (inactive)"],
  ["COc1ccc(/C=C2\\N=C(N3CCCCC3)NC2=O)cc1", "> 100 µM (inactive)"],
  ["O=C1CSC(c2c[nH]c3ccccc23)N1c1ccc(Cl)cc1 (stereo unspecified)", "> 100 µM (inactive)"],
  ["CCCCCCCC/C=C/CCCCCCCC(=O)N(O)C1CC(n2cc(C)c(=O)[nH]c2=O)OC1CO (stereo unspecified)", "10.6 µM (inactive)"],
  ["O=C(/C=C/c1c(O)ccc2ccccc12)c1cccc2ccccc12", "> 100 µM (inactive)"],
  ["Oc1ccccc1-c1n[nH]c(-c2ccccc2O)n1", "2.17 µM (inactive)"],
  ["CC1CN1c1c(C(=O)/C=C/c2ccc(Cl)cc2)c(-c2ccccc2)nn(C)c1=O (stereo unspecified)", "3.11 µM (inactive)"],
  ["Clc1ccc(C(Cc2ccccc2)c2c(Cl)nc(N3CCNCC3)nc2Cl)cc1 (stereo unspecified)", "15.2 µM (inactive)"],
  ["NC(Cc1ccc(O)c(O)c1)P(=O)(O)O (stereo unspecified)", "> 100 µM (inactive)"]
]}

----------
Recorded GI50 for the following compounds
Tested on: NCI-H522
ASSAY_TEXT: NCI tumour cell line growth inhibition, 48 h
Activity calls are given as the source filed them. Rule as the data show it: active = GI50 up to about 1.1 µM and inactive = higher.

{"columns": ["COMPOUND", "MEASURED_TARGET", "GI50"],
 "data": [
  ["O=C(Cc1ccccc1)N/N=C(\\C1=Nc2ccc([N+](=O)[O-])cc2NC1O)C(O)c1ccc([N+](=O)[O-])cc1 (stereo not given)", "NCI-H522", "7.89 µM (inactive)"],
  ["CCOC(=O)CCC(NC(=O)C(N)Cc1ccc(N(CCCl)CCCl)cc1)C(=O)OCC (stereo not given)", "NCI-H522", "0.285 µM (active)"],
  ["O=C(/C=C/c1cccs1)c1ccc(C(=O)/C=C/c2cccs2)cc1", "NCI-H522", "> 100 µM (inactive)"],
  ["CCN1CCCCCCCCCC(=N/O)/C(=N\\O)C1", "NCI-H522", "> 100 µM (inactive)"],
  ["CCCCCCCC/C=C/CCCCCCCC(=O)N(O)C1CC(n2cc(C)c(=O)[nH]c2=O)OC1CO (stereo not given)", "NCI-H522", "7.76 µM (inactive)"],
  ["Oc1ccccc1-c1n[nH]c(-c2ccccc2O)n1", "NCI-H522", "1.64 µM (inactive)"],
  ["CCCCCCNC(=S)N/N=C(\\C)c1ccccn1", "NCI-H522", "0.06 µM (active)"],
  ["Cc1cc(=O)n2nc(CN3CCCCC3)sc2n1", "NCI-H522", "> 100 µM (inactive)"],
  ["CC(=O)O[C@]1(C(C)=O)CC[C@H]2[C@@H]3C[C@H](C)C4=CC(=O)C=C[C@]4(C)[C@@]3(F)[C@@H](O)C[C@@]21C [FLUOROMETHOLONE ACETATE]", "NCI-H522", "62.1 µM (inactive)"],
  ["COc1cccc(C2c3cc4c(cc3OC(N3CCCC3)C2C)OCO4)c1 (stereo not given)", "NCI-H522", "3.92 µM (inactive)"],
  ["Cc1c(C(=O)/C=C/c2ccco2)[n+]([O-])c2ccccc2[n+]1[O-]", "NCI-H522", "58.9 µM (inactive)"],
  ["N#CC1(C#N)C(C#N)(C#N)C12CCCCCC2", "NCI-H522", "2.77 µM (inactive)"],
  ["O=[N+]([O-])C(=C(\\Cl)NCCO)/C(Cl)=C(/Cl)Br", "NCI-H522", "1.1 µM (active)"],
  ["COc1cc(C2c3cc4c(cc3OC(Nc3ccccc3)C2C)OCO4)cc(OC)c1O (stereo not given)", "NCI-H522", "2.35 µM (inactive)"],
  ["C=O.NNCCc1n[nH]c(=O)n1N", "NCI-H522", "> 100 µM (inactive)"],
  ["CO/C=C(/C(=O)OC)[C@@H]1C[C@@H]1c1ccc2ccccc2c1", "NCI-H522", "12 µM (inactive)"],
  ["O=C1C(S(=O)(=O)c2ccccc2)=C(CS(=O)(=O)c2ccccc2)[C@@H](OCc2ccccc2)[C@@H]1OCc1ccccc1", "NCI-H522", "16 µM (inactive)"],
  ["COc1ccc(C(=O)Cc2c(C(=O)c3ccccc3)c3ccccc3n2C(=O)c2ccccc2)cc1", "NCI-H522", "47.1 µM (inactive)"],
  ["O=C1C(OC(=O)c2ccccc2)=C(c2ccc(O)cc2)C(=O)C(OC(=O)c2ccccc2)=C1c1ccc(O)cc1", "NCI-H522", "> 100 µM (inactive)"],
  ["COC(=O)c1c(O)ccc2c1c1c(n2Cc2ccccc2Cl)C(=O)c2ccccc2C1=O", "NCI-H522", "10.9 µM (inactive)"]
]}
